test: cn = amount concentration of the nth substance listed, in mol/dm3; conditions: 323.15 K; 101 kPa; Liquid; c1 = 0.3
propertyLabel: mass density (kg/m3)
All answers are understood in kg/m3, so give the number only.

Use the examples below as a reference point.
I'd like to know its mass density. The compound in question is OC[C@@H](O)[C@H](O)[C@@H](O)CO [xylitol] + O
1002.55

I'd like to know its mass density. The compound in question is OC[C@@H](O)[C@@H](O)[C@H](O)[C@H](O)CO [mannitol] + O
1005.23

I'd like to know its mass density. The compound in question is OC[C@@H](O)[C@@H](O)CO [meso-1,2,3,4-butanetetrol] + O
998.81

I'd like to know its mass density. The compound in question is OC[C@@H](O)[C@@H](O[C@H]1O[C@H](CO)[C@@H](O)[C@H](O)[C@H]1O)[C@H](O)[C@@H](O)CO [4-O-α-D-glucopyranosyl-D-glucitol] + O
1017.52

Here is the next item to consider.
I'd like to know its mass density. The compound in question is OC[C@@H](O)[C@@H](O)[C@H](O)[C@@H](O)CO [D-sorbitol] + O
1006.75

###

assay: cn = amount concentration of the nth substance listed, in mol/dm3; conditions: 313.15 K; 101 kPa; Liquid; c1 = 0.1
propertyLabel: mass density (kg/m3)
All answers are understood in kg/m3, so give the number only.

I'd like to know its mass density. The compound in question is OC[C@@H](O)[C@@H](O)[C@H](O)[C@@H](O)CO [D-sorbitol] + O
998.58

I'd like to know its mass density. The compound in question is OC[C@@H](O)[C@@H](O[C@H]1O[C@H](CO)[C@@H](O)[C@H](O)[C@H]1O)[C@H](O)[C@@H](O)CO [4-O-α-D-glucopyranosyl-D-glucitol] + O
1003.78

I'd like to know its mass density. The compound in question is OC[C@@H](O)[C@H](O)[C@@H](O)CO [xylitol] + O
997.16

I'd like to know its mass density. The compound in question is OC[C@@H](O)[C@@H](O)CO [meso-1,2,3,4-butanetetrol] + O
995.83

I'd like to know its mass density. The compound in question is OC[C@@H](O)[C@@H](O)[C@H](O)[C@H](O)CO [mannitol] + O
998.28

###

This listing pairs compounds with measured viscosity.
test: cn = amount concentration of the nth substance listed, in mol/dm3; conditions: 303.15 K; 101 kPa; Liquid; c1 = 0.4
All answers are understood in mPa·s, so give the number only.

I'd like to know its viscosity. The compound in question is OC[C@@H](O)[C@@H](O)[C@H](O)[C@@H](O)CO [D-sorbitol] + O
0.9794

I'd like to know its viscosity. The compound in question is OC[C@@H](O)[C@@H](O)CO [meso-1,2,3,4-butanetetrol] + O
0.911

I'd like to know its viscosity. The compound in question is OC[C@@H](O)[C@H](O)[C@@H](O)CO [xylitol] + O
0.9452

More entries:
I'd like to know its viscosity. The compound in question is OC[C@@H](O)[C@@H](O)[C@H](O)[C@H](O)CO [mannitol] + O
1.036

I'd like to know its viscosity. The compound in question is OC[C@@H](O)[C@@H](O[C@H]1O[C@H](CO)[C@@H](O)[C@H](O)[C@H]1O)[C@H](O)[C@@H](O)CO [4-O-α-D-glucopyranosyl-D-glucitol] + O
1.225

###

This listing pairs compounds with measured mass density.
assay: cn = amount concentration of the nth substance listed, in mol/dm3; conditions: 313.15 K; 101 kPa; Liquid; c1 = 0.8
All answers are understood in kg/m3, so give the number only.

I'd like to know its mass density. The compound in question is OC[C@@H](O)[C@@H](O)[C@H](O)[C@@H](O)CO [D-sorbitol] + O
1041.95

I'd like to know its mass density. The compound in question is OC[C@@H](O)[C@H](O)[C@@H](O)CO [xylitol] + O
1031.62

I'd like to know its mass density. The compound in question is OC[C@@H](O)[C@@H](O)[C@H](O)[C@H](O)CO [mannitol] + O
1041.82

I'd like to know its mass density. The compound in question is OC[C@@H](O)[C@@H](O[C@H]1O[C@H](CO)[C@@H](O)[C@H](O)[C@H]1O)[C@H](O)[C@@H](O)CO [4-O-α-D-glucopyranosyl-D-glucitol] + O
1066.22

More entries:
I'd like to know its mass density. The compound in question is OC[C@@H](O)[C@@H](O)CO [meso-1,2,3,4-butanetetrol] + O
1019.15

###

assay: cn = amount concentration of the nth substance listed, in mol/dm3; conditions: 293.15 K; 101 kPa; Liquid; c1 = 0.3
propertyLabel: viscosity (mPa·s)
All answers are understood in mPa·s, so give the number only.

Use the examples below as a reference point.
I'd like to know its viscosity. The compound in question is OC[C@@H](O)[C@@H](O)[C@H](O)[C@@H](O)CO [D-sorbitol] + O
1.168

I'd like to know its viscosity. The compound in question is OC[C@@H](O)[C@H](O)[C@@H](O)CO [xylitol] + O
1.128

I'd like to know its viscosity. The compound in question is OC[C@@H](O)[C@@H](O)CO [meso-1,2,3,4-butanetetrol] + O
1.088

I'd like to know its viscosity. The compound in question is OC[C@@H](O)[C@@H](O[C@H]1O[C@H](CO)[C@@H](O)[C@H](O)[C@H]1O)[C@H](O)[C@@H](O)CO [4-O-α-D-glucopyranosyl-D-glucitol] + O
1.513

More entries:
I'd like to know its viscosity. The compound in question is OC[C@@H](O)[C@@H](O)[C@H](O)[C@H](O)CO [mannitol] + O
1.203

###

assay: cn = amount concentration of the nth substance listed, in mol/dm3; conditions: 313.15 K; 101 kPa; Liquid; c1 = 0.4
Decision: viscosity >= 0.8 mPa·s yields yes (1), all other cases yield no (0).

Could you tell me if the measured viscosity of OC[C@@H](O)[C@H](O)[C@@H](O)CO [xylitol] + O reaches 0.8 mPa·s or more?
no (0)

Could you tell me if the measured viscosity of OC[C@@H](O)[C@@H](O)CO [meso-1,2,3,4-butanetetrol] + O reaches 0.8 mPa·s or more?
no (0)

Then there is this compound:
Could you tell me if the measured viscosity of OC[C@@H](O)[C@@H](O[C@H]1O[C@H](CO)[C@@H](O)[C@H](O)[C@H]1O)[C@H](O)[C@@H](O)CO [4-O-α-D-glucopyranosyl-D-glucitol] + O reaches 0.8 mPa·s or more?
yes (1)

###

assay: cn = amount concentration of the nth substance listed, in mol/dm3; conditions: 313.15 K; 101 kPa; Liquid; c1 = 0.5
propertyLabel: viscosity (mPa·s)
All answers are understood in mPa·s, so give the number only.

I'd like to know its viscosity. The compound in question is OC[C@@H](O)[C@@H](O)[C@H](O)[C@@H](O)CO [D-sorbitol] + O
0.8127

More entries:
I'd like to know its viscosity. The compound in question is OC[C@@H](O)[C@@H](O)CO [meso-1,2,3,4-butanetetrol] + O
0.7611

I'd like to know its viscosity. The compound in question is OC[C@@H](O)[C@H](O)[C@@H](O)CO [xylitol] + O
0.7869

I'd like to know its viscosity. The compound in question is OC[C@@H](O)[C@@H](O[C@H]1O[C@H](CO)[C@@H](O)[C@H](O)[C@H]1O)[C@H](O)[C@@H](O)CO [4-O-α-D-glucopyranosyl-D-glucitol] + O
1.06

I'd like to know its viscosity. The compound in question is OC[C@@H](O)[C@@H](O)[C@H](O)[C@H](O)CO [mannitol] + O
0.8642

###

experiment: cn = amount concentration of the nth substance listed, in mol/dm3; settings: 313.15 K; 101 kPa; Liquid; c1 = 0.4
This listing pairs compounds with measured mass density.
All answers are understood in kg/m3, so give the number only.

Use the examples below as a reference point.
I'd like to know its mass density. The compound in question is OC[C@@H](O)[C@@H](O)[C@H](O)[C@H](O)CO [mannitol] + O
1016.94

I'd like to know its mass density. The compound in question is OC[C@@H](O)[C@H](O)[C@@H](O)CO [xylitol] + O
1011.95

I'd like to know its mass density. The compound in question is OC[C@@H](O)[C@@H](O[C@H]1O[C@H](CO)[C@@H](O)[C@H](O)[C@H]1O)[C@H](O)[C@@H](O)CO [4-O-α-D-glucopyranosyl-D-glucitol] + O
1030.54

I'd like to know its mass density. The compound in question is OC[C@@H](O)[C@@H](O)[C@H](O)[C@@H](O)CO [D-sorbitol] + O
1017.37

Here is the next item to consider.
I'd like to know its mass density. The compound in question is OC[C@@H](O)[C@@H](O)CO [meso-1,2,3,4-butanetetrol] + O
1006.3
